Hello, the source for this data is patent US20250101011A1, in case you need it.

Recorded measurements of inhibition at 0.005 µM, one per entry
biological target: DPP1 (Homo sapiens (Human), UniProt P53634); assay: DPP1 activity inhibition test on U937 cells; assay type: cell-based; conditions: U-937, 5 nM compound, substrate h-Gly-phe-AFC
Sequence (P53634 25-463): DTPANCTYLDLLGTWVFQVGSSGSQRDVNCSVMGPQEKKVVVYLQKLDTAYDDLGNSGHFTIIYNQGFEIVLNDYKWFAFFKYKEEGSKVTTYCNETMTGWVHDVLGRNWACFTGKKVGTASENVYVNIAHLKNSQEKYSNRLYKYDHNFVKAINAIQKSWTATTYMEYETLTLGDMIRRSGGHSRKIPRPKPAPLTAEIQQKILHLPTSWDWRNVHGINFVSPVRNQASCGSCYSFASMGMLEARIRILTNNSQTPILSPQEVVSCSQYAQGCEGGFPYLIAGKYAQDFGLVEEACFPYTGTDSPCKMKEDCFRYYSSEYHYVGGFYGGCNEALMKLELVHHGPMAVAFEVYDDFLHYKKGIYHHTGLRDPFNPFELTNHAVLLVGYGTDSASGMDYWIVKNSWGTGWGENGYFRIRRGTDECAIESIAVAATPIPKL
property-name: inhibition at 0.005 µM

- C[C@@H]1OC(=O)c2ccc(-c3ccc(C[C@@H](C#N)NC(=O)[C@@H]4CNCCCO4)c(F)c3)cc21 [Compound D74]: 30 to 75%
- N#C[C@H](Cc1ccc(-c2cc3c(cc2F)C(=O)OC3)cc1F)NC(=O)[C@@H]1CNCCCO1 [Compound D79]: < 30%
- CC1(C)Cc2cc(-c3ccc(C[C@@H](C#N)NC(=O)[C@@H]4CNCCCO4)c(F)c3)ccc2C1=O [Compound D117]: 30 to 75%
- N#C[C@H](Cc1ccc(-c2ccc3c(c2)CC2(CC2)C3=O)cc1F)NC(=O)[C@@H]1CNCCCO1 [Compound D116]: < 30%
- Cn1cc(-n2c(=O)oc3ccc(-c4ccc(C[C@@H](C#N)NC(=O)[C@@H]5CNCCCO5)c(F)c4)cc32)cn1 [Compound D63]: 30 to 75%
- CN1CCC2(CC1)OC(=O)c1ccc(-c3ccc(C[C@@H](C#N)NC(=O)[C@@H]4CNCCCO4)cc3)nc12 [Compound D29]: 30 to 75%
- CN1CCC2(CC1)OCc1ccc(-c3ccc(C[C@@H](C#N)NC(=O)[C@@H]4CNCCCO4)cc3)nc12 [Compound D31]: < 30%

----------
target: DPP1 (Homo sapiens (Human), UniProt P53634); test: DPP1 activity inhibition test on U937 cells; format: cell-based; conditions: U-937, 50 nM compound, substrate h-Gly-phe-AFC
# key: entry, value: inhibition at 0.05 µM
property-name: inhibition at 0.05 µM

• CN1CC2(C1)OCc1ccc(-c3ccc(C[C@@H](C#N)NC(=O)[C@@H]4CNCCCO4)c(F)c3)cc12 = 75 to 100%
• CN1CCC(n2c(=O)oc3ccc(-c4ccc(C[C@@H](C#N)NC(=O)[C@@H]5CNCCCO5)c(F)c4)cc32)C(F)(F)C1 (stereo partly drawn) = 30 to 75%
• CN1CCC2(CC1)COc1ccc(-c3ccc(C[C@@H](C#N)NC(=O)[C@@H]4CNCCCO4)c(F)c3)cc12 = 75 to 100%

----------
molecular target: DPP1 (Homo sapiens (Human)); assay: DPP1 activity inhibition test on U937 cells; assay type: cell-based; conditions: U-937, 5 nM compound, substrate h-Gly-phe-AFC
property-name: inhibition at 0.005 µM

• C[C@H]1CNC[C@@H](C(=O)N[C@H](C#N)Cc2ccc(-c3ccc4oc(=O)n(C)c4c3)cc2F)OC1 = 30 to 75%
• N#C[C@H](Cc1ccc(-c2ccc3c(c2)CCC3=O)cc1)NC(=O)[C@@H]1CNCCCO1 = 30 to 75%
• Cn1c(=O)oc2ccc(-c3ccc(C[C@@H](C#N)NC(=O)[C@@H]4CNCC5(COC5)CO4)c(F)c3)cc21 = < 30%
• CN1CCC2(C=Cc3cc(-c4ccc(C[C@@H](C#N)NC(=O)[C@@H]5CNCCCO5)c(F)c4)ccc32)CC1 = 30 to 75%
• Cn1c(=O)oc2ncc(-c3ccc(C[C@@H](C#N)NC(=O)[C@@H]4CNCCCO4)c(F)c3)nc21 = < 30%
• CN1CC(n2c(=O)oc3ccc(-c4ccc(C[C@@H](C#N)NC(=O)[C@@H]5CNCCCO5)c(F)c4)cc32)C1 = 30 to 75%
• N#C[C@H](Cc1ccc(-c2ccc3oc(=O)n(CC4CCO4)c3c2)cc1F)NC(=O)[C@@H]1CNCCCO1 (stereo partly drawn) = < 30%
• Cn1c(=O)oc2cc(-c3ccc(C[C@@H](C#N)NC(=O)[C@@H]4CNCCCO4)cc3)ccc21 = < 30%
• Cn1c(=O)oc2ccc(-c3ccc(C[C@@H](C#N)NC(=O)[C@@H]4COCC[C@@H]4N)cc3)cc21 = < 30%
